Tested on: HOP-92
Assay: NCI tumour cell line growth inhibition, 48 h
The source made the active and inactive calls. Rule as the data show it: active = GI50 up to about 1.1 µM and inactive = higher.
In this exercise, the only acceptable responses are active, inactive

So what was the verdict on Cc1cc(C)c2c(n1)S(=O)(=O)N(CCCN1CCN(c3cccc(Cl)c3)CC1)C(C(=O)c1ccccc1)=C2O in this test?
inactive

Hi, sorry to bother you, what did the test record for N#CC1(C=O)c2ccccc2C=CN1C(=O)c1ccccc1 (stereo not given) ?
inactive

Hi team, can someone confirm the assay call for CC12CCC(=O)C[C@H]1CCC(OC=O)C2Br (stereo not given in full) ?
inactive

Short answer needed: outcome of this test for Cc1ccc(-c2c3c(n(C4OC(CO)C(O)C(O)C4O)c(=S)c2C#N)CC(C)(C)CC3=O)cc1 (stereo not given) ?
inactive

// param item: O=C1CC(c2ccc(Cl)cc2)Oc2ccccc21 (stereo not given) ; yields the recorded call
inactive

More entries:
In this assay, the call recorded for CCCC[C@@H](C)/C=C1\CN2CCC[C@H]2[C@@](C)(OCc2ccccc2)[C@@H]1O was what?
inactive

Name the outcome recorded for O=C1Nc2ccc(Br)cc2C1=Nc1cccnc1 in the assay.
inactive

Could you kindly confirm the outcome this assay logged for COc1ccc2c(c1OC)OCC(CN(C)C)C2=O (stereo not given) ?
inactive
